Source: patent US5733879A

- experiment: Electron microscopy size measurement of the lipid-peptide complexes
- Assay type: physicochemical
- condition_notes: complex with DPPC, from electromicrographs
Where no end group is shown, it is not given here.
measured_attribute: Diameter MEAN ± SD (Å)
Form entry: value (Å) — number only.

# annotated cases, reported Diameter MEAN ± SD shown
{"columns": ["chain", "Diameter MEAN ± SD / Å"],
 "data": [
  ["EWLKAEYEKVLEKLKELF [M2]", 173],
  ["EWLKAEYEKVEEKLKELF [M3]", 175],
  ["EWLKAFYKKVLEKLKELF [M1]", 209]
]}

Now consider the entry below.
Record EWLEAFYKKVLEKLKELF [M4] , field Diameter MEAN ± SD: 150

---

- experiment: Percentage of alpha-helix structure by ATR infrared spectroscopy
- Format: physicochemical
- condition_notes: free peptide
Where no end group is shown, it is not given here.
measured_attribute: percentage of alpha-helix structure, peptide, IR (%)
Field: numeric (%). Do not append units.

Examples with answers:
{"columns": ["chain", "experimental_value"],
 "data": [
  ["EWLKAFYKKVLEKLKELF [M1]", 29],
  ["EWLEAFYKKVLEKLKELF [M4]", 35],
  ["EWLKAEYEKVEEKLKELF [M3]", 43]
]}

Next sequence, percentage of alpha-helix structure, peptide, IR to be filled in.
percentage of alpha-helix structure, peptide, IR recorded for this sequence, EWLKAEYEKVLEKLKELF [M2] , is 36

---

- experiment: GdmCl denaturation followed by Trp maximal emission wavelength
- Assay type: physicochemical
- condition_notes: free peptide or protein
Where no end group is shown, it is not given here.
measured_attribute: midpoint of the GdmCl denaturation transition, free peptide

{"columns": ["chain", "experimental_value"],
 "data": [
  ["EWLEAFYKKVLEKLKELF [M4]", "around 0.1 M"],
  ["EWLKAEYEKVEEKLKELF [M3]", "around 0.1 M"]
]}

---

- experiment: Orientation of helices and acyl chains by polarized ATR infrared spectroscopy
- Type: physicochemical
- condition_notes: peptide-DMPC complexes
Where no end group is shown, it is not given here.
Below, each of the sequences is paired with its reported angle between the peptide and an axis perpendicular to the Ge plane value.
The figure you give is taken to be in °; do not add the unit.

{"columns": ["chain", "experimental_value"],
 "data": [
  ["EWLKAEYEKVLEKLKELF [M2]", 25],
  ["EWLKAEYEKVEEKLKELF [M3]", 34],
  ["EWLKAFYKKVLEKLKELF [M1]", 25]
]}

Short answer for EWLEAFYKKVLEKLKELF [M4] : angle between the peptide and an axis perpendicular to the Ge plane was 31

---

- experiment: Percentage of alpha-helix structure by ATR infrared spectroscopy
- Type: physicochemical
- condition_notes: phospholipid-peptide (DMPC) complex
Where no end group is shown, it is not given here.
measured_attribute: percentage of alpha-helix structure, DMPC/peptide, IR (%)
Express your answer in %, writing the number without its unit.

Answered examples (3):
{"columns": ["chain", "uom", "experimental_value"],
 "data": [
  ["EWLEAFYKKVLEKLKELF [M4]", "%", 58],
  ["EWLKAFYKKVLEKLKELF [M1]", "%", 50],
  ["EWLKAEYEKVEEKLKELF [M3]", "%", 61]
]}

Next up:
Please fill in: percentage of alpha-helix structure, DMPC/peptide, IR reported for EWLKAEYEKVLEKLKELF [M2] = 50
